molecular target: recombinant human cannabinoid 1 receptor (CB1), CHO cell membranes (Homo sapiens, UniProt P21554); construct: expressed in transfected cells; membranes prepared; assay: [35S]GTPγS binding assay, antagonism against WIN 55,212-2; assay type: biochemical; conditions: compound at 1 μM against WIN 55,212-2 dose response; 100% = effect of internal standard CB1-antagonist
Sequence (P21554 whole entry): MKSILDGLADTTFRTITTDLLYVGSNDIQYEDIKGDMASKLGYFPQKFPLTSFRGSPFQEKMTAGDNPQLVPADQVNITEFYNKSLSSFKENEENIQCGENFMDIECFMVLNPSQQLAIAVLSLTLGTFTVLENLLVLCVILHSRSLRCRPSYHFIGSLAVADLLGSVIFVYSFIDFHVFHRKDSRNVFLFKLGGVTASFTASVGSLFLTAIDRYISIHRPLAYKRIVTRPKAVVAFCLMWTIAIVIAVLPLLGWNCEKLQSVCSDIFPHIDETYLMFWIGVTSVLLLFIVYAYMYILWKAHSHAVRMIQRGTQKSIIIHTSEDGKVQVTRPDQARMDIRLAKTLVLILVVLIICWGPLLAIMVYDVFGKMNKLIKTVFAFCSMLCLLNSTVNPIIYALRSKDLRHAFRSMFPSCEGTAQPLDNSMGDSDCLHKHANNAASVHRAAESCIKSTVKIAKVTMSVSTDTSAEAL
Give Antagonism (%) for every item shown.
Express the result in % but write the number alone.

Please look up its Antagonism (%): C[C@H]1C(C(=O)NN2CCCCCC2)=NN(c2ccc(Cl)cc2Cl)[C@H]1c1ccc(Br)cc1.Cl (relative stereo) [Example 5]
133

Same question for C[C@H]1C(C(=O)NN2CCCCCC2)=NN(c2ccc(Cl)cc2Cl)[C@H]1c1ccc(F)cc1 [Example 7] please.
52

Same question for C[C@H]1C(C(=O)NN2CCCCCC2)=NN(c2ccc(Cl)cc2Cl)[C@H]1c1ccc(F)cc1.Cl (relative stereo) [7 (HCl)] please.
83

Same question for C[C@H]1C(C(=O)NN2CCCCCC2)=NN(c2ccc(Cl)cc2Cl)[C@H]1c1ccc(Cl)cc1.Cl (relative stereo) [Example 1] please.
99

Same question for COc1ccc([C@H]2[C@@H](C)C(C(=O)NN3CCCCCC3)=NN2c2ccc(Cl)cc2Cl)cc1.Cl (relative stereo) [Example 9] please.
117

---

biological target: transfected human CB1 receptor (Homo sapiens)
quantity: IC50 (µM)
Express the result in µM but write the number alone.

I'm curious: which IC50 was measured for C[C@H]1C(C(=O)NN2CCCCCC2)=NN(c2ccc(Cl)cc2Cl)[C@H]1c1ccc(Br)cc1.Cl (relative stereo) [Example 5, hydrochloride] tested on transfected human CB1 receptor (Homo sapiens)?
0.071

Same question for COc1ccc([C@H]2[C@@H](C)C(C(=O)NN3CCCCCC3)=NN2c2ccc(Cl)cc2Cl)cc1.Cl (relative stereo) [Example 9, hydrochloride] please.
0.061

Same question for C[C@H]1C(C(=O)NN2CCCCCC2)=NN(c2ccc(Cl)cc2Cl)[C@H]1c1ccc(Cl)cc1.Cl (relative stereo) [Example 1, hydrochloride] please.
0.0079

Same question for C[C@H]1C(C(=O)NN2CCCCCC2)=NN(c2ccc(Cl)cc2Cl)[C@H]1c1ccc(F)cc1.Cl (relative stereo) [7 (HCl)] please.
0.122
